Target: Prostaglandin D2 receptor (Homo sapiens)
Sequence (whole entry): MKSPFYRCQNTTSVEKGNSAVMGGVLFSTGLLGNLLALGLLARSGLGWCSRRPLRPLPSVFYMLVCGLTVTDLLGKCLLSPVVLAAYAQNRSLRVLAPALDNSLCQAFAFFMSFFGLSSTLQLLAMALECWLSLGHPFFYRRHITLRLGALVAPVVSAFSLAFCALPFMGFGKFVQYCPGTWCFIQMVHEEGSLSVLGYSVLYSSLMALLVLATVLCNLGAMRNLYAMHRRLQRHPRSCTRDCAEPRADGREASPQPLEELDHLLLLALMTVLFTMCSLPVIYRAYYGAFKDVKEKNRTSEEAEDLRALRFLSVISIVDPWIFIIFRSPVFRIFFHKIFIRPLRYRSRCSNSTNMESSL
Assay: Binding affinity to human prostaglandin D1 receptor at 10 uM by radioligand displacement assay
readout.name: inhibition (%)

These recorded examples may help you get a feel for the data.
- compound: "Cc1c(C2c3ccccc3S(=O)(=O)N2CCOc2ccccc2)c2ccccc2n1CC(=O)O (racemic)"
  unit.tag: "%"
  inhibition: 0
- compound: "Cc1noc(C)c1CN1C(c2c(C)n(CC(=O)O)c3ccc(Cl)cc23)c2ccccc2S1(=O)=O (racemic)"
  unit.tag: "%"
  inhibition: 15

1. Cc1noc(C)c1CN1C(c2c(C)n(CC(=O)O)c3ccccc23)c2ccccc2S1(=O)=O (racemic)
2. Cc1c(C2c3ccccc3S(=O)(=O)N2CCOc2ccc(Cl)cc2)c2ccccc2n1CC(=O)O (racemic)
Inquiry: Which numeric inhibition is bigger, that of 1 or that of 2 ? Selection: enter the item's label.
Reply text: 2
(2: 28%, 1: 0%)
